Reference source: ChEMBL document CHEMBL3988442

A collection of compounds and their measured Percent Effect
Tested on: Trypanosoma cruzi
Assay: Trypanosoma cruzi phosphomannomutase and mannose-1-phosphate guanylyltransferase assay
Assay type: functional
Design: scale not given: direction of the effect not stated beside the values
Conditions: 10 µM
I only need the number, in %, no unit after it.

{"columns": ["COMPOUND", "Percent Effect / %"],
 "data": [
  ["O=C(NCCn1ccnc1)N1CCCC1c1ccsc1 (centres undefined)", 8.73],
  ["CSCC(=O)N1CCCC(n2ccnc2C(C)C)C1 (centres undefined)", -6.63]
]}

Now look at this entry.
Ask: Look up Percent Effect for this compound: Cn1ncc2c1NC(=O)CC2c1ccccc1Cl (centres undefined)
Reply: 3.6
